Assignment: determine reported EC50, CreLuc assay, 100% hP for the given binders.
# Test target: human GLP-1 receptor (human, UniProt P43220 24-463)
# Experiment summary: cell-based or functional assay
Starred links: 1 amine or outer side, 2 acyl side, 3 side chain; linkers in the order of their positions; H or OH if unused. Non-standard residues stand in square brackets, D forms with d. Groups on a side chain read outwards from the residue. No end group written: not given here. *: point of attachment. C18 diacid = O=C(O)CCCCCCCCCCCCCCCCC(=O)*; γGlu = O=C(O)[C@H](CCC(=O)[*:2])N[*:1]; εLys = N[C@@H](CCCCN[*:1])C(=O)[*:2]; Aib = CC(C)(N)C(=O)O
Output spec: scalar in nM, unitless text.

In: Report EC50, CreLuc assay, 100% hP for YXEGTFTSDYSIXLEKEAQXKFVEWLIKGGPSSGASLRHYYNWLTRQRY (Aib at 2, 13, 20; K28 side chain: C20DA-gGlu-gGlu-gGlu-gGlu-gGlu-gGlu-eLys; C-terminal NH2) [Compound 46]
Out: 5.94

In: Using known records, supply EC50, CreLuc assay, 100% hP for YXEGTFTSDYSIXLEKQAQXAFVQWLIKGGPESPASLRHYYNWLTRQRY (Aib at 2, 13, 20; K28 side chain: C20DA-gGlu-gGlu-gGlu-gGlu-gGlu; C-terminal NH2) [Compound 11]
Out: 6.69

In: Please report the measured EC50, CreLuc assay, 100% hP for Y[Aib]EGTFTSDYSI[Aib]LEKQAQ[Aib]AFVQWLIK([εLys-γGlu-γGlu-γGlu-γGlu-γGlu-C18 diacid])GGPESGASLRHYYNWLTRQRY-NH2 (also: TFA salt) [Compound 60]
Out: 1.69

Hello, the source for this data is patent US20240247080A1, in case you need it.
